Each item that follows carries a reported pKi.
target: D(3) dopamine receptor (Homo sapiens, UniProt P35462); assay: Displacement of [3H]methyl-spiperone from recombinant human D3 receptor expressed in CHO cells
Sequence (P35462 whole entry): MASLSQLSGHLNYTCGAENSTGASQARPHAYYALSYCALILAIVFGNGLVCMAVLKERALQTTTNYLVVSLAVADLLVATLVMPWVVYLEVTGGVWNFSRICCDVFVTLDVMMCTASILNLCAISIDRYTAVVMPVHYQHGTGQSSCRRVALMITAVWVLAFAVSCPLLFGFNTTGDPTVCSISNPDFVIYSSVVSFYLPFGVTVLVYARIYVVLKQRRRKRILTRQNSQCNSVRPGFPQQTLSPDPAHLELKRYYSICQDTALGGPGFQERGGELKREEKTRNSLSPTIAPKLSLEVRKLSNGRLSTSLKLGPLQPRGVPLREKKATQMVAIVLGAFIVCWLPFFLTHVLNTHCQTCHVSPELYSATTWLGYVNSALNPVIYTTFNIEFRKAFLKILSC
pKi: −log10 of the molar value.
value-type: pKi

{"test-smiles": "C[C@H]1CN(CC[C@H]2CC[C@H](N3C(=O)[C@H]4CCCC[C@H]4C3=O)CC2)CCc2ccc(Cl)cc21", "value-type": "pKi", "recorded-measurement": 8.03}
{"test-smiles": "C[C@@H]1CN(CC[C@H]2CC[C@H](NC(=O)N(C)C)CC2)CCc2ccc(Cl)cc21", "value-type": "pKi", "recorded-measurement": 6.71}
{"test-smiles": "C[C@H]1CN(CC[C@H]2CC[C@H](NC(=O)N3CCOCC3)CC2)CCc2ccc(Cl)cc21", "value-type": "pKi", "recorded-measurement": 8.74}
{"test-smiles": "C[C@H]1CN(CC[C@H]2CC[C@H](NC(=O)c3ccco3)CC2)CCc2ccc(Cl)cc21", "value-type": "pKi", "recorded-measurement": 8.74}
